Target: Receptor tyrosine-protein kinase erbB-2 (Homo sapiens); also: in other assays of this panel Not Active means under 50% inhibition at 10 µM;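 also: inhibition of HER2 kinase enzyme activity, measured with Poly(Glu:Tyr) as the phosphorylation substrate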
Sequence (P04626 whole entry): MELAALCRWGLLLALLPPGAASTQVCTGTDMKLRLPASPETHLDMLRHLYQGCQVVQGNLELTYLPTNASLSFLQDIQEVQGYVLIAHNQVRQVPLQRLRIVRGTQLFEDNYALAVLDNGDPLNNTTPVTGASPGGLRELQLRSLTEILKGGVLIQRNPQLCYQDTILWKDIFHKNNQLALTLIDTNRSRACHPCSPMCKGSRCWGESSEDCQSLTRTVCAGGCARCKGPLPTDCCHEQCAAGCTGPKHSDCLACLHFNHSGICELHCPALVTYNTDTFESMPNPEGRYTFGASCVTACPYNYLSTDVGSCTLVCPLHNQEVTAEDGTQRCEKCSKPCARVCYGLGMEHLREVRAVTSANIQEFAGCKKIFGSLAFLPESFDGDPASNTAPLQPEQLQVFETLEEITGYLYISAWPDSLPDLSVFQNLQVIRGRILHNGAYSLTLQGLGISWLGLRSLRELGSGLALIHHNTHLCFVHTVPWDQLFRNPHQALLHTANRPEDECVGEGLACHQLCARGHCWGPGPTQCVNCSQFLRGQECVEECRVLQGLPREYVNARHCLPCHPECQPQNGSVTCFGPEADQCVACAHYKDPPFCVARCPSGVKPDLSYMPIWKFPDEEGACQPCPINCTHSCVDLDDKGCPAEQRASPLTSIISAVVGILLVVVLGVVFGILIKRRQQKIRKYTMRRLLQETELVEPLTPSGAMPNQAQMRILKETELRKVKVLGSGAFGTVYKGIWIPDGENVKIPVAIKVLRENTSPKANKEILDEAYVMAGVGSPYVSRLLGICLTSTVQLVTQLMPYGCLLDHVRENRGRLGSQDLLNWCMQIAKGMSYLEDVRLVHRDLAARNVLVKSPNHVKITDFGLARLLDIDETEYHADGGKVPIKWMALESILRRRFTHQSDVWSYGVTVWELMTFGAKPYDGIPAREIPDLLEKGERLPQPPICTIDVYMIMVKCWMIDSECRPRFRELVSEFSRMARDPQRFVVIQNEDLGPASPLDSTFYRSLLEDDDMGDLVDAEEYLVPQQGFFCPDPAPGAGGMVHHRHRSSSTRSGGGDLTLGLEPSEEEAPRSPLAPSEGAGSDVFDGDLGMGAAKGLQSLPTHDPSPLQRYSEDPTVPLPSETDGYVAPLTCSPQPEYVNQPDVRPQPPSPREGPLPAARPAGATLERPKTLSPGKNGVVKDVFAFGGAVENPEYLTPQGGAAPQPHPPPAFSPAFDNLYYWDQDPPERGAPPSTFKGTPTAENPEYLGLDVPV
Assay: biochemical
Type: cell-based, Insect cells
Conditions: insect cells

molecule	IC50
CC(C)[C@H](N)C(=O)OCCOCn1cnc2c(=O)nc(N)[nH]c21	Not Active
CC1=Nc2ccc(Cl)cc2S(=O)(=O)N1 [DIAZOXIDE]	Not Active
COc1ccc(C(CN(C)C)C2(O)CCCCC2)cc1 (centres undefined)	Not Active
COC(=O)[C@@H]1[C@H]2C[C@H]3c4[nH]c5ccccc5c4CCN3C[C@@H]2CC[C@@H]1O	Not Active
CSc1ccc2c(c1)N(CCC1CCCCN1C)c1ccccc1S2 (centres undefined)	Not Active
O=C(CCCN1CCC(O)(c2ccc(Cl)cc2)CC1)c1ccc(F)cc1	Not Active
COC(=O)c1ccc(O)cc1	Not Active
CC[N+](CC)(CC)CCOc1cccc(OCC[N+](CC)(CC)CC)c1OCC[N+](CC)(CC)CC.[I-].[I-].[I-] [GALLAMINE TRIETHIODIDE]	Not Active
COC(=O)[C@H](c1ccccc1Cl)N1CCc2sccc2C1	Not Active
